Source listed as patent US8497274B2.

molecular target: BRAF (V600E) kinase (Homo sapiens (Human), UniProt P15056, V600E); experiment: BRAF (V600E) kinase inhibitory activity; assay type: biochemical; conditions: BRAF (V600E) enzyme, GSTP1-MEK1 (K96R) substrate, compound 1.0 μM; read-out: Inhibitory rate (%) at 1.0 μM
Sequence (P15056 457-717 V600E): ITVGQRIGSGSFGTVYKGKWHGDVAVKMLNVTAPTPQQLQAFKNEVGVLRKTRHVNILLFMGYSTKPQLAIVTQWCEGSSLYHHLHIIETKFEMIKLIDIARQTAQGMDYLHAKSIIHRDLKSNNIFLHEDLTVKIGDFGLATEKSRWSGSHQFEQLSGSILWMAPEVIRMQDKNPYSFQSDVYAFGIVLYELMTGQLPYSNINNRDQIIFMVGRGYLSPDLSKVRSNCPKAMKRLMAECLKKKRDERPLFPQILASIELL
Value Kind: inhibition at 1 µM (%)

> print(dat)
                               entry.smiles  obs.value
1  CC(C)(C#N)c1cccc(C(=O)Nc2cccc(Oc3ccc4nc(NC(=O)C5CC5)sc4c3C#N)c2)c1        101
2  CC(=O)Nc1nc2ccc(Oc3cccc(NC(=O)Nc4ccc(Cl)c(C(F)(F)F)c4)c3)c(C#N)c2s1        100
3  CC(=O)Nc1nc2ccc(Oc3cccc(NC(=O)C(C)(C)c4cccc(Br)c4)c3)c(C#N)c2s1         98
4  CC(=O)Nc1nc2ccc(Oc3cccc(NC(=O)c4cccc(C(C)(C)C#N)c4)c3)c(C#N)c2s1        101
5  N#Cc1c(Oc2cccc(NC(=O)Nc3ccc(C(F)(F)F)cn3)c2)ccc2nc(NC(=O)C3CC3)sc12         98
6  N#Cc1c(Oc2cccc(NC(=O)Nc3ccc(C(F)(F)F)nc3)c2)ccc2nc(NC(=O)C3CC3)sc12        100
